Attribution: ChEMBL document CHEMBL6071131

Give Activity for every item shown.
# target.under.test: 5'-AMP-activated protein kinase catalytic subunit alpha-1 (Homo sapiens) (UniProt Q13131)
# Sequence (Q13131 whole entry, looked up): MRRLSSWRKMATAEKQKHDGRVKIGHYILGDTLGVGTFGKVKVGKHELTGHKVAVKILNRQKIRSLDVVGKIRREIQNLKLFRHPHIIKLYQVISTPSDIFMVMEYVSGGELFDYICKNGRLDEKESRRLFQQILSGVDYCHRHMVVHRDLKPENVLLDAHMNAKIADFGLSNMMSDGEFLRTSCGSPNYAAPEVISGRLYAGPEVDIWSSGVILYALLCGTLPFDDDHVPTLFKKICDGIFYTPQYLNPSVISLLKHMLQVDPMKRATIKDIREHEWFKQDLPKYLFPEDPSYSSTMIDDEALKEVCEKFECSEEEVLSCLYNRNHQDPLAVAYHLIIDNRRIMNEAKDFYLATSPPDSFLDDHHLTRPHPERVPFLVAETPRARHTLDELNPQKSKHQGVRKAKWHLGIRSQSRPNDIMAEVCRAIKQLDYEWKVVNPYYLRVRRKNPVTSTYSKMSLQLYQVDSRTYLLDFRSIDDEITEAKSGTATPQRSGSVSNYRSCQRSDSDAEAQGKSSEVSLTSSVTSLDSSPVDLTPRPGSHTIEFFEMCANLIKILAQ
# assay.notes: Inhibition of human AMPK alpha-1 assessed as residual activity at 50 uM relative to control
One number for each entry, in %.

molecule	Activity (%)
Cc1ccc(S(=O)(=O)N2CC(CCn3cnc4c(Br)ncnc43)Oc3ccc(C)cc32)cc1 (stereo not given)	86
Cc1ccc(S(=O)(=O)N2CC(CCn3cnc4c(Cl)nc(Cl)nc43)Oc3cc(Cl)ccc32)cc1 (stereo not given)	89
Cc1ccc(S(=O)(=O)N2CC(CCn3cnc4c(Br)ncnc43)Oc3cc(Cl)ccc32)cc1 (stereo not given)	73
Cc1ccc(S(=O)(=O)N2CC(CCn3cnc4c(Cl)nc(Cl)nc43)Oc3ccc(C)cc32)cc1 (stereo not given)	75

Now look at this one.
Q: // Activity lookup, key: Cc1ccc(S(=O)(=O)N2CC(CCn3cnc4c(Cl)nc(Cl)nc43)Oc3ccc(Br)cc32)cc1 (stereo not given)
Ans: 70

* * *

# target.under.test: Mitogen-activated protein kinase 14 (Homo sapiens) (UniProt Q16539)
# Sequence (Q16539 whole entry): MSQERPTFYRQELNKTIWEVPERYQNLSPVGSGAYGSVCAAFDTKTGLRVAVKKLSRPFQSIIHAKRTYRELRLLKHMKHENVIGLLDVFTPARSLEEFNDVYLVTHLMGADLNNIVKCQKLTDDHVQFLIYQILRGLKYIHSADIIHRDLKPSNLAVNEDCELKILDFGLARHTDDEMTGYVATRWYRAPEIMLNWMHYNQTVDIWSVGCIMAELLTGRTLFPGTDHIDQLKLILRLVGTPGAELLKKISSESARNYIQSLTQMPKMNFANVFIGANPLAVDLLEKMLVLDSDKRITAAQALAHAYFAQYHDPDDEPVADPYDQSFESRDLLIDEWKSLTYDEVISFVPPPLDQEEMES
# assay.notes: Inhibition of human P38-alpha assessed as residual activity at 5 uM relative to control
experimental.endpoint: Activity (%)
Answers are plain numbers, in %.

compound	target.under.test	Activity, %
Cc1ccc(S(=O)(=O)N2CC(CCn3cnc4c(Br)ncnc43)Oc3ccc(C)cc32)cc1 (stereo not given)	Mitogen-activated protein kinase 14 (Homo sapiens) (UniProt Q16539)	93
Cc1ccc(S(=O)(=O)N2CC(CCn3cnc4c(Cl)nc(Cl)nc43)Oc3cc(Cl)ccc32)cc1 (stereo not given)	Mitogen-activated protein kinase 14 (Homo sapiens) (UniProt Q16539)	72
Cc1ccc(S(=O)(=O)N2CC(CCn3cnc4c(Cl)nc(Cl)nc43)Oc3ccc(C)cc32)cc1 (stereo not given)	Mitogen-activated protein kinase 14 (Homo sapiens) (UniProt Q16539)	112

For each of the compounds below, state Activity.
1. Cc1ccc(S(=O)(=O)N2CC(CCn3cnc4c(Br)ncnc43)Oc3cc(Cl)ccc32)cc1 (stereo not given)
2. Cc1ccc(S(=O)(=O)N2CC(CCn3cnc4c(Cl)nc(Cl)nc43)Oc3ccc(Br)cc32)cc1 (stereo not given)

Ans:
1. 91
2. 97

* * *

# Species: Homo sapiens
# assay.notes: Inhibition of human AKT assessed as residual activity at 50 uM relative to control
experimental.endpoint: Activity (%)
Give bare numbers, in %.

Example entries begin here.
compound	Activity, %
Cc1ccc(S(=O)(=O)N2CC(CCn3cnc4c(Cl)nc(Cl)nc43)Oc3ccc(Br)cc32)cc1 (stereo not given)	87
Cc1ccc(S(=O)(=O)N2CC(CCn3cnc4c(Cl)nc(Cl)nc43)Oc3cc(Cl)ccc32)cc1 (stereo not given)	139
Cc1ccc(S(=O)(=O)N2CC(CCn3cnc4c(Br)ncnc43)Oc3ccc(C)cc32)cc1 (stereo not given)	106

For each of the compounds below, state Activity.
1. Cc1ccc(S(=O)(=O)N2CC(CCn3cnc4c(Br)ncnc43)Oc3cc(Cl)ccc32)cc1 (stereo not given)
2. Cc1ccc(S(=O)(=O)N2CC(CCn3cnc4c(Cl)nc(Cl)nc43)Oc3ccc(C)cc32)cc1 (stereo not given)

Ans:
99
104

* * *

# Species: Homo sapiens
# assay.notes: Inhibition of human AKT assessed as residual activity at 5 uM relative to control
experimental.endpoint: Activity (%)
Answers are plain numbers, in %.

Example entries begin here.
compound	measured.result
Cc1ccc(S(=O)(=O)N2CC(CCn3cnc4c(Br)ncnc43)Oc3ccc(C)cc32)cc1 (stereo not given)	89
Cc1ccc(S(=O)(=O)N2CC(CCn3cnc4c(Cl)nc(Cl)nc43)Oc3ccc(C)cc32)cc1 (stereo not given)	88
Cc1ccc(S(=O)(=O)N2CC(CCn3cnc4c(Cl)nc(Cl)nc43)Oc3ccc(Br)cc32)cc1 (stereo not given)	95
Cc1ccc(S(=O)(=O)N2CC(CCn3cnc4c(Br)ncnc43)Oc3cc(Cl)ccc32)cc1 (stereo not given)	94

Now look at this one.
Q: // Activity lookup, key: Cc1ccc(S(=O)(=O)N2CC(CCn3cnc4c(Cl)nc(Cl)nc43)Oc3cc(Cl)ccc32)cc1 (stereo not given)
Ans: 103

* * *

# target.under.test: Receptor tyrosine-protein kinase erbB-2 (Homo sapiens)
# assay.notes: Inhibition of human HER2 assessed as residual activity at 5 uM relative to control
Is Activity at least 80%? Then 1.0. If not, 0.0.

Illustrative cases are given below, each with its answer.
molecule	target.under.test	class.label
Cc1ccc(S(=O)(=O)N2CC(CCn3cnc4c(Br)ncnc43)Oc3cc(Cl)ccc32)cc1 (stereo not given)	Receptor tyrosine-protein kinase erbB-2 (Homo sapiens)	1.0
Cc1ccc(S(=O)(=O)N2CC(CCn3cnc4c(Cl)nc(Cl)nc43)Oc3ccc(C)cc32)cc1 (stereo not given)	Receptor tyrosine-protein kinase erbB-2 (Homo sapiens)	1.0
Cc1ccc(S(=O)(=O)N2CC(CCn3cnc4c(Cl)nc(Cl)nc43)Oc3cc(Cl)ccc32)cc1 (stereo not given)	Receptor tyrosine-protein kinase erbB-2 (Homo sapiens)	0.0

# evaluate next
Q: Hi, just wondering whether Cc1ccc(S(=O)(=O)N2CC(CCn3cnc4c(Br)ncnc43)Oc3ccc(C)cc32)cc1 (stereo not given) shows Activity of 80% or higher.
Ans: 1.0

* * *

# System: MCF7
# assay.notes: Antiproliferative activity against human MCF7 cells incubated for 5 days by PrestoBlue assay
# Type: functional, cell-based
# experimental.context: MCF7, 120 h
experimental.endpoint: pIC50
One number for each entry, as −log10 of the molar value.

Q: pIC50 of Cc1ccc(S(=O)(=O)N2CC(CCn3cnc4c(Cl)nc(Cl)nc43)Oc3ccccc32)cc1 (stereo unspecified) on MCF7?
Ans: 4.89

* * *

# target.under.test: LKB1-STRAD-MO25 complex (Homo sapiens) (UniProt Q15831+Q7RTN6+Q9Y376)
# assay.notes: Inhibition of human LKB1/MO25/STRADalpha assessed as residual activity at 50 uM relative to control
# Format: protein-complex assay
experimental.endpoint: Activity (%)
One number for each entry, in %.

compound	Activity / %
Cc1ccc(S(=O)(=O)N2CC(CCn3cnc4c(Cl)nc(Cl)nc43)Oc3ccc(Br)cc32)cc1 (stereo not given)	95
Cc1ccc(S(=O)(=O)N2CC(CCn3cnc4c(Cl)nc(Cl)nc43)Oc3cc(Cl)ccc32)cc1 (stereo not given)	100

For each of the compounds below, state Activity.
1. Cc1ccc(S(=O)(=O)N2CC(CCn3cnc4c(Br)ncnc43)Oc3cc(Cl)ccc32)cc1 (stereo not given)
2. Cc1ccc(S(=O)(=O)N2CC(CCn3cnc4c(Br)ncnc43)Oc3ccc(C)cc32)cc1 (stereo not given)
3. Cc1ccc(S(=O)(=O)N2CC(CCn3cnc4c(Cl)nc(Cl)nc43)Oc3ccc(C)cc32)cc1 (stereo not given)

Ans:
1: 129; 2: 131; 3: 89

* * *

Give Activity for every item shown.
# target.under.test: LKB1-STRAD-MO25 complex (Homo sapiens) (UniProt Q15831+Q7RTN6+Q9Y376)
# assay.notes: Inhibition of human LKB1/MO25/STRADalpha assessed as residual activity at 5 uM relative to control
# Type: protein-complex assay

For each of the molecules below, state Activity.
1. Cc1ccc(S(=O)(=O)N2CC(CCn3cnc4c(Cl)nc(Cl)nc43)Oc3cc(Cl)ccc32)cc1 (stereo not given)
2. Cc1ccc(S(=O)(=O)N2CC(CCn3cnc4c(Cl)nc(Cl)nc43)Oc3ccc(Br)cc32)cc1 (stereo not given)
3. Cc1ccc(S(=O)(=O)N2CC(CCn3cnc4c(Br)ncnc43)Oc3cc(Cl)ccc32)cc1 (stereo not given)
4. Cc1ccc(S(=O)(=O)N2CC(CCn3cnc4c(Cl)nc(Cl)nc43)Oc3ccc(C)cc32)cc1 (stereo not given)

Ans:
1. 84%
2. 98%
3. 94%
4. 88%

Q: // Activity lookup, key: Cc1ccc(S(=O)(=O)N2CC(CCn3cnc4c(Br)ncnc43)Oc3ccc(C)cc32)cc1 (stereo not given)
Ans: 95%

* * *

Give Activity for every item shown.
# target.under.test: Receptor tyrosine-protein kinase erbB-2 (Homo sapiens)
# assay.notes: Inhibition of human HER2 assessed as residual activity at 50 uM relative to control
Answers are plain numbers, in %.

molecule	target.under.test	measured.result
Cc1ccc(S(=O)(=O)N2CC(CCn3cnc4c(Br)ncnc43)Oc3ccc(C)cc32)cc1 (stereo not given)	Receptor tyrosine-protein kinase erbB-2 (Homo sapiens)	55
Cc1ccc(S(=O)(=O)N2CC(CCn3cnc4c(Br)ncnc43)Oc3cc(Cl)ccc32)cc1 (stereo not given)	Receptor tyrosine-protein kinase erbB-2 (Homo sapiens)	65
Cc1ccc(S(=O)(=O)N2CC(CCn3cnc4c(Cl)nc(Cl)nc43)Oc3cc(Cl)ccc32)cc1 (stereo not given)	Receptor tyrosine-protein kinase erbB-2 (Homo sapiens)	67

For each of the molecules below, state Activity.
1. Cc1ccc(S(=O)(=O)N2CC(CCn3cnc4c(Cl)nc(Cl)nc43)Oc3ccc(C)cc32)cc1 (stereo not given)
2. Cc1ccc(S(=O)(=O)N2CC(CCn3cnc4c(Cl)nc(Cl)nc43)Oc3ccc(Br)cc32)cc1 (stereo not given)

Ans:
50
63
